Target Of Assay: CYP17A1 17α-hydroxylase (Homo sapiens)
Construct: expressed in transfected cells; host or cells: COS-1 cells, transient transfection, microsomal fraction
Sequence (P05093 whole entry): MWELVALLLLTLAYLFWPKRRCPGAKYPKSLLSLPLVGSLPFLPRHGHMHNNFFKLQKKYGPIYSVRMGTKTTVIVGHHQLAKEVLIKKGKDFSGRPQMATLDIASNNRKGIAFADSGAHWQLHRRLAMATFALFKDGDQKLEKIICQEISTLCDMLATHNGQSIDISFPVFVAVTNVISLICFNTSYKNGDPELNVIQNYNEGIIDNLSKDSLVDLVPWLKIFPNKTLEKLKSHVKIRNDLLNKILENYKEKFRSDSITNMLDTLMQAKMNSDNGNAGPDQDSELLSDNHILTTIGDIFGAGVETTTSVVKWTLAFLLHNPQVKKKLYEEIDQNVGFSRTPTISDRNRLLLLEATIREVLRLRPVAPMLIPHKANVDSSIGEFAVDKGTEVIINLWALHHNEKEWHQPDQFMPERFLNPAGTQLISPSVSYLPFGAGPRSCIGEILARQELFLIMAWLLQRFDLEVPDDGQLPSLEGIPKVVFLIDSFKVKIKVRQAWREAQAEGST
Protocol Details: CYP17A1 17α-hydroxylase activity assay, microsomes of transfected COS-1 cells
Assay type: biochemical
Setup Conditions: cell-free, progesterone 500 nM, 10 min; read-out: IC50 CYP17A1 17α-hydroxylase mean
Reported values of pIC50 for individual entries
Here pIC50 is given on a logarithmic scale as minus log10 of the concentration in mol/L.

CC(O)C(C)n1ncn(-c2ccc(N3CCN(c4ccc(OCC5COC(Cn6cncn6)(c6ccc(Cl)cc6Cl)O5)cc4)CC3)cc2)c1=O (stereo not shown) [OH-itraconazole, Hydroxyitraconazole] ... 5.15
CCCN(CCOc1c(Cl)cc(Cl)cc1Cl)C(=O)n1ccnc1 ... 7.05

Query block: Hello, I am looking for reported pIC50 with CYP17A1 17α-hydroxylase (Homo sapiens) for CC[C@@H]([C@H](C)O)n1ncn(-c2ccc(N3CCN(c4ccc(OC[C@@H]5CO[C@@](Cn6cncn6)(c6ccc(F)cc6F)C5)cc4)CC3)cc2)c1=O . Could you help?
Result block: 5.95

* * *

pIC50 data for CYP17A1 17,20-lyase (Homo sapiens, UniProt P05093) follow.
Here pIC50 is given on a logarithmic scale as minus log10 of the concentration in mol/L.

Query block: Hello, I am looking for reported pIC50 with CYP17A1 17,20-lyase (Homo sapiens, UniProt P05093) for CCCN(CCOc1c(Cl)cc(Cl)cc1Cl)C(=O)n1ccnc1 . Could you help?
Result block: 7.40

Query block: Hello, I am looking for reported pIC50 with CYP17A1 17,20-lyase (Homo sapiens, UniProt P05093) for C[C@@H](c1nc(-c2ccc(C#N)cc2)cs1)[C@](O)(Cn1cncn1)c1cc(F)ccc1F . Could you help?
Result block: 5.24

Query block: Hello, I am looking for reported pIC50 with CYP17A1 17,20-lyase (Homo sapiens, UniProt P05093) for CC(O)C(C)n1ncn(-c2ccc(N3CCN(c4ccc(OCC5COC(Cn6cncn6)(c6ccc(Cl)cc6Cl)O5)cc4)CC3)cc2)c1=O (stereo not shown) [OH-itraconazole, Hydroxyitraconazole] . Could you help?
Result block: 5.61

Query block: Hello, I am looking for reported pIC50 with CYP17A1 17,20-lyase (Homo sapiens, UniProt P05093) for CCC(C)n1ncn(-c2ccc(N3CCN(c4ccc(OCC5COC(Cn6cncn6)(c6ccc(Cl)cc6Cl)O5)cc4)CC3)cc2)c1=O (stereo not shown) . Could you help?
Result block: 5.24

Query block: Hello, I am looking for reported pIC50 with CYP17A1 17,20-lyase (Homo sapiens, UniProt P05093) for CC[C@@H]([C@H](C)O)n1ncn(-c2ccc(N3CCN(c4ccc(OC[C@@H]5CO[C@@](Cn6cncn6)(c6ccc(F)cc6F)C5)cc4)CC3)cc2)c1=O . Could you help?
Result block: 6.55

* * *

Reported values of IC50 for individual entries
Target Of Assay: CYP21A2 (Homo sapiens)
Construct: host or cells: COS-1 cells, transient transfection, microsomal fraction
Sequence (P08686 1-495): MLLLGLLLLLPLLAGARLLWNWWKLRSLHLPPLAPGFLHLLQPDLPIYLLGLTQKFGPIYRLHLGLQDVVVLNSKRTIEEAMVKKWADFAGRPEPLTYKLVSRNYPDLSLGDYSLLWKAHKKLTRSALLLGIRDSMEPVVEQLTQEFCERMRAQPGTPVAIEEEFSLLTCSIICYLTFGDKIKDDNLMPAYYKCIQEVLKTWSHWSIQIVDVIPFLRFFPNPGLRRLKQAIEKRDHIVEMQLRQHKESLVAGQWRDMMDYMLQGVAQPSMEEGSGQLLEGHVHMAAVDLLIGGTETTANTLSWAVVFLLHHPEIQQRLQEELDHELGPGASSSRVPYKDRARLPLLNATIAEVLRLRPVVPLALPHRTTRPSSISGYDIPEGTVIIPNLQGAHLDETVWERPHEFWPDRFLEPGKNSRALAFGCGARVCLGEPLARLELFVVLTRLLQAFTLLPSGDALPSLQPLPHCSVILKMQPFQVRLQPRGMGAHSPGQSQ
Protocol Details: CYP21A2 activity assay, microsomes of transfected COS-1 cells
Type: biochemical
Setup Conditions: cell-free, progesterone 500 nM, 10 min

CC(O)C(C)n1ncn(-c2ccc(N3CCN(c4ccc(OCC5COC(Cn6cncn6)(c6ccc(Cl)cc6Cl)O5)cc4)CC3)cc2)c1=O (stereo not drawn) [OH-itraconazole, Hydroxyitraconazole] ... > 10 µM
C[C@@H](c1ncncc1F)[C@](O)(Cn1cncn1)c1ccc(F)cc1F [voriconazole] ... > 10 µM
CCC(C)n1ncn(-c2ccc(N3CCN(c4ccc(OCC5COC(Cn6cncn6)(c6ccc(Cl)cc6Cl)O5)cc4)CC3)cc2)c1=O (stereo not drawn) [itraconazole] ... > 10 µM
OC(Cn1cncn1)(Cn1cncn1)c1ccc(F)cc1F [fluconazole] ... > 10 µM
CC[C@@H]([C@H](C)O)n1ncn(-c2ccc(N3CCN(c4ccc(OC[C@@H]5CO[C@@](Cn6cncn6)(c6ccc(F)cc6F)C5)cc4)CC3)cc2)c1=O [posaconazole, Posaconazole] ... > 10 µM

Turning to the following molecule.
Query block: Recorded IC50 of CCCN(CCOc1c(Cl)cc(Cl)cc1Cl)C(=O)n1ccnc1 [prochloraz] , please.
Result block: 0.21 µM
